- Test system: SCC 68 Human Squamous Cell Carcinoma
- run_description: Initial in vitro screening, squamous cell carcinoma cells
- Assay type: cell-based
- measurement_parameters: IC50 CV-1 / IC50 cell line 7 (squamous cell carcinoma)
measured_property: Selectivity
The answer should be a number; do not append a unit.

Take a look at these entries with their results.
1. CCN1C(=CC=Cc2sc3cc4ccccc4nc3[n+]2CC)Sc2cc3ccccc3nc21	30
2. COc1cccc2c1C(=O)c1c(O)c3c(c(O)c1C2=O)C[C@@](O)(C(=O)CO)C[C@@H]3O[C@H]1C[C@H](N)[C@H](O)[C@H](C)O1 [Adriamycin, reference compound]	10

Look at this molecule and give its reported Selectivity. CCN1/C(=C/C=C/c2sc3ccccc3[n+]2CC)Sc2ccccc21.[I-]
13.3

* * *

Catalogue of IC50 values
- Tested on: CV-1 Normal Monkey Kidney Epithelial
- run_description: Clonogenic dye screening assay, CV-1 cells (IC50)
- Type: cell-based, African green monkey
- measurement_parameters: Primates, CV-1, 3 hrs treatment, colonies after 7-10 days; unit from method; read-out: CV (IC50 in the CV-1 cell line)
Number only, in µg/mL; omit the unit.

1. CCN1/C(=c2/s/c(=c3\s/c(=C\c4ccc5ccccc5[n+]4CC)n(CC)c3=O)n(CC)c2=O)Sc2ccccc21	3.2
2. CN1/C(=C/c2ccc3ccc4ccccc4c3[n+]2C)Sc2ccccc21	0.5
3. CCN1C=C(c2ccccc2)O/C1=C\C=C\c1sc2ccccc2[n+]1CC	0.4

Would you kindly look at the next entry?
Look at this compound and give its reported IC50. CCN1/C(=C/C=C/C=C/c2sc3cc4ccccc4cc3[n+]2CC)Sc2cc3ccccc3cc21
3

* * *

- Test system: CX-1 Human Colon Carcinoma
- run_description: Clonogenic dye screening assay, CX-1 cells (IC50)
- Type: cell-based
- measurement_parameters: Table XVI; selectivity ratio of IC50 values
Mark NOT MET for CV/CX values under 50, and MET for everything at or above.

Example cases with answers are listed next.
1) CN1/C(=C/C=C/c2sc3ccccc3[n+]2C)Sc2ccc3ccccc3c21 [naphtho/1,2/thiazole (R=M)]	NOT MET
2) CCN1C(=CC=Cc2sc3ccccc3[n+]2CC)N(CC)c2cc(Cl)c(Cl)cc21	NOT MET
3) CC[n+]1c(/C=C/C=C2\[Te]c3ccc4ccccc4c3N2C)sc2ccccc21	NOT MET
4) CC[n+]1c(/C=C/C=C2\Sc3ccc4ccccc4c3N2C)sc2ccccc21 [naphtho/1,2/thiazole (R=E/M)]	NOT MET
5) CC[n+]1c(/C=C/C=C2C=CN(C)c3ccccc32)sc2ccccc21	NOT MET
6) CCN1C=C(c2ccccc2)SC1=CC=Cc1sc2ccccc2[n+]1CC	NOT MET
7) CCN1/C(=C/C=C/c2sc3ccccc3[n+]2CC)C(C)(C)c2ccccc21	NOT MET
8) CCN1/C(=C/C=C/c2sc3ccccc3[n+]2CC)Sc2ccccc21.[I-]	MET

Kindly determine if CV/CX recorded for CC[n+]1c(/C=C/C=C2\[Te]c3ccccc3N2C)sc2ccccc21 is above or exactly 50.
MET

Now give it for CCN1C=CC(=C/C=C/c2sc3ccccc3[n+]2CC)c2ccsc21 too.
NOT MET

Now give it for CCN1/C(=C/C=C/c2sc3c([n+]2C)CCCC3)Sc2ccccc21.[I-] too.
MET

meta.source: patent US20060099712A1
